Entries and their IC50 values follow.
tested on: Trypanosoma brucei; assay: Antitrypanosomal activity against Trypanosoma brucei.; assay type: functional, organism-based

{"Query smiles": "Cn1c2nc3ccccc3c-2cc2c(C(F)(F)F)cccc21", "Tested system": "Trypanosoma brucei", "IC50": "> 32 µM"}

Please report the measured IC50 for Cn1c2nc3ccc(C#N)cc3c-2cc2cc(C(F)(F)F)ccc21
> 32 µM

Please report the measured IC50 for Cn1c2nc3ccc(C#N)cc3c-2cc2ccccc21
> 32 µM

----------
Entries and their IC50 values follow.
test system: MRC5; experiment: Cytotoxicity against human diploid embryonic lung cell line MRC-5 using MTT assay; assay type: functional, cell-based

Completed entries (count: 6):
{"Compound": "Cn1c2nc3ccc(C#N)cc3c-2cc2cc(Cl)ccc21", "IC50": "> 32 µM"}
{"Compound": "Cn1c2nc3ccccc3c-2cc2cc(Br)ccc21", "IC50": "> 32 µM"}
{"Compound": "Cn1c2nc3ccc(C#N)cc3c-2cc2ccccc21", "IC50": "> 32 µM"}
{"Compound": "Cn1c2nc3ccccc3c-2cc2cc(C#N)ccc21", "IC50": "16 µM"}
{"Compound": "Cc1ccc2c(c1)cc1c3ccccc3nc-1n2C", "IC50": "0.95 µM"}
{"Compound": "Clc1ccc2[nH]c3nc4ccccc4c-3cc2c1", "IC50": "> 32 µM"}

Please report the measured IC50 for COc1cccc2c1cc1c3ccccc3nc-1n2C
5 µM

----------
test system: MRC5; assay: Cytotoxicity against human diploid embryonic lung cell line MRC-5 using MTT assay; format: functional, cell-based
pIC50: −log10 of the molar value.
Rule: True for pIC50 not less than 5, False for anything less.

Observe how each entry below is paired with its result.
{"Compound": "COc1ccc2[nH]c3nc4ccccc4c-3cc2c1", "Label": "False"}
{"Compound": "COc1ccc2c(c1)cc1c3ccccc3nc-1n2C", "Label": "True"}
{"Compound": "Clc1cc(Cl)c2[nH]c3nc4ccccc4c-3cc2c1", "Label": "False"}
{"Compound": "C[n+]1c2ccccc2cc2[n-]c3ccccc3c21 [CRYPTOLEPINE]", "Label": "True"}
{"Compound": "Cn1c2nc3ccccc3c-2cc2cc(Cl)ccc21", "Label": "False"}

For this compound, is measured pIC50 5 or higher? Cn1c2nc3ccc(C#N)cc3c-2cc2cc(C(F)(F)F)ccc21
False

For this compound, is measured pIC50 5 or higher? Cn1c2nc3ccccc3c-2cc2ccc(Br)cc21
False

----------
tested on: MRC5; test: Cytotoxicity against human diploid embryonic lung cell line MRC-5 using MTT assay; type: functional, cell-based
Entries and their pIC50 values follow.
Please treat pIC50 as minus the base-10 logarithm of the molar concentration.

{"Query smiles": "Cn1c2nc3ccccc3c-2cc2c(C(F)(F)F)cccc21", "Recorded result": 4.80}

Would you kindly look at the next entry?
Please report the measured pIC50 for CSc1ccc2c(c1)cc1c3ccccc3nc-1n2C
5.30

----------
system: MRC5; experiment: Cytotoxicity against human diploid embryonic lung cell line MRC-5 using MTT assay; format: functional, cell-based
pIC50: −log10 of the molar value.
Measured attribute: pIC50

Completed entries (count: 2):
{"Query smiles": "COc1ccc2c(c1)cc1c3cc(C#N)ccc3nc-1n2C", "Measured attribute": "pIC50", "Recorded result": "< 4.49"}
{"Query smiles": "Fc1ccc2[nH]c3nc4ccccc4c-3cc2c1", "Measured attribute": "pIC50", "Recorded result": "< 4.49"}

Would you kindly look at the next entry?
Please report the measured pIC50 for Cn1c2nc3ccccc3c-2cc2cc([N+](=O)[O-])ccc21
< 4.49
